Biological target: human farnesyl transferase (Homo sapiens, UniProt P49354+P49356)
Construct: human farnesyl transferase purified from THP1 cell cultures; endogenous in cells; host or cells: THP1 cell cultures (enzyme purified from the cells)
Assay: inhibition of farnesyl transferase ((3H) farnesyl transfer from (3H) FPP to p21 H-ras)
Assay type: biochemical
Details: human farnesyl transferase purified from THP1 cell cultures; p21 H-ras substrate; 20 minutes at 37° C.; 9 concentrations; read-out: in vitro inhibitory activity IC50
pIC50: −log10 of the molar value.
Think of 6 as a floor: if pIC50 stands on it or above, it is Fulfilled; beneath it, Not fulfilled.

Example entries and their recorded answers appear below.
C=C(C(=O)N1C[C@H]2[C@@]3(c4ccccc4)CC[C@H](c4ccccc43)[C@@]2(C(=O)O)C1)c1ccccc1OC [Example 39]; Fulfilled
COc1ccccc1CC(=O)N1C[C@H]2[C@@]3(c4ccccc4)CC[C@H](c4ccccc43)[C@@]2(CC(=O)NCC(=O)O)C1 (relative stereo) [Example 20]; Not fulfilled

Now for a further compound.
## Input Does the reported pIC50 for COC(=O)CNC(=O)[C@]12CN(C(=O)Cc3ccccc3OC)C[C@H]1[C@@]1(c3ccccc3)CC[C@@H]2c2ccccc21 (relative stereo) [Example 69] fall at or above the 6 mark?
## Output Not fulfilled

###

Biological target: human farnesyl transferase (Homo sapiens, UniProt P49354+P49356)
Construct: human farnesyl transferase purified from THP1 cell cultures; endogenous in cells; host or cells: THP1 cell cultures (enzyme purified from the cells)
Assay: inhibition of farnesyl transferase ((3H) farnesyl transfer from (3H) FPP to p21 H-ras)
Format: biochemical
Measurement Name: log10(IC50) (log10 of the value in nM)
Record value = log10 of IC50 given in nM.

CSc1ccccc1CC(=O)N1C[C@H]2[C@@]3(c4ccccc4)CC[C@H](c4ccccc43)[C@@]2(C(=O)O)C1 (relative stereo) [Example 30]; 2.78
COc1ccccc1[C@@H](C)C(=O)N1CC2C3(c4ccccc4)CCC(c4ccccc43)C2(C(=O)O)C1 (single isomer, unassigned) [Example 33]; 3.31
COc1ccccc1[C@H](C)C(=O)N1CC2C3(c4ccccc4)CCC(c4ccccc43)C2(C(=O)O)C1 (single isomer, unassigned) [Example 34]; 2.77
COC(=O)[C@]12CN(C(=O)Cc3ccccc3OC)C[C@H]1[C@@]1(c3ccccc3)CC[C@@H]2c2ccccc21 (relative stereo) [Example 1]; 2.61
COc1ccccc1OC(=O)N1C[C@H]2[C@@]3(c4ccccc4)CC[C@H](c4ccccc43)[C@@]2(C(=O)O)C1 (relative stereo) [Example 27]; 3.76
COc1ccccc1CC(=S)N1C[C@@H]2[C@]3(c4ccccc4)CC[C@@H](c4ccccc43)[C@]2(C(=O)O)C1 (relative stereo) [Example 65]; 2.61

Please examine the following record next.
## Input Could you tell me which log10(IC50) is on file for CCOc1ccccc1CC(=O)N1C[C@H]2[C@@]3(c4ccccc4)CC[C@H](c4ccccc43)[C@@]2(C(=O)O)C1 [Example 75] ?
## Output 2.57

###

Target: human farnesyl transferase (Homo sapiens, UniProt P49354+P49356)
Construct: human farnesyl transferase purified from THP1 cell cultures; endogenous in cells; host or cells: THP1 cell cultures (enzyme purified from the cells)
Assay: inhibition of farnesyl transferase ((3H) farnesyl transfer from (3H) FPP to p21 H-ras)
Type: biochemical
Details: human farnesyl transferase purified from THP1 cell cultures; p21 H-ras substrate; 20 minutes at 37° C.; 9 concentrations; read-out: in vitro inhibitory activity IC50
Listing of entries alongside the reported pIC50.
pIC50 is a log-scale quantity: -log10 of the concentration expressed in molar.

COc1ccccc1CC(=O)N1C[C@H]2[C@@]3(c4ccccc4)CC[C@H](c4ccccc43)[C@@]2(NC(=O)CC(=O)O)C1 (relative stereo) [Example 16]; 5.52

## Input Lab request: please report pIC50 under test system human farnesyl transferase (Homo sapiens, UniProt P49354+P49356) for COc1ccccc1C1(C(=O)N2C[C@@H]3[C@]4(c5ccccc5)CC[C@@H](c5ccccc54)[C@]3(C(=O)O)C2)CC1 (racemic) [Example 41]
## Output 5.96

## Input Lab request: please report pIC50 under test system human farnesyl transferase (Homo sapiens, UniProt P49354+P49356) for O=C(Cc1ccccc1OCc1ccccc1)N1C[C@@H]2[C@]3(c4ccccc4)CC[C@@H](c4ccccc43)[C@]2(C(=O)O)C1 (relative stereo) [Example 64]
## Output 6.12
